Every entry's value here was drawn from PubChem BioAssay (NCI).

- Tested on: MCF7 breast
- Assay Info: NCI-60 one-dose screen, 48 h (100 = growth as untreated, 0 = no growth, -100 = all killed)
- Experimental Parameters: 10 µM unless noted
This is part of a sample that, as a whole, favours compounds with a hit. Of some 83,000 tested, about 20% had one in any assay. Activity calls are given as the source filed them. The calls were made as follows: active = growth percent below 10; inactive = the rest.
Entries annotated with measured growth

Here is how some compounds turned out for growth.
1. COc1ccc(/C=N/NC(=O)c2cnn3c2NC(c2ccccc2)C3)cc1OC (stereo not drawn) :: 29.6% (inactive)
2. COc1ccc(C(=O)Nc2cccc(C3CCc4c(cc(OC)c(OC)c4OC)O3)c2)cc1 (stereo not drawn) :: 33.1% (inactive)
3. COc1cc2nc(-c3ccc(C(F)(F)F)cc3)cc(OCCCN3CCCC3)c2cc1OC :: 44.7% (inactive)

(Q) Recall the recorded growth for CCOC(=O)c1cc(C#N)n2ccc3ccccc3c12 with MCF7 breast and state it.
(A) 95.7% (inactive)

(Q) Same question for CNC(=O)c1cccc(Cn2nc(C)c(NC(=O)c3ccc(COc4ccc(C(F)(F)F)cc4C)cc3)c2C)n1 please.
(A) 21.7% (inactive)

(Q) Same question for CN1CCN(CCNc2nccc(-c3c(-c4cccc(O)c4)nc4sccn34)n2)S1(=O)=O please.
(A) 71.3% (inactive)

(Q) Same question for CCOC(=O)c1cc(C(=O)c2ccc(OC)c(OC)c2)n2ccc(/C=C/c3cc[n+](CC(=O)c4ccc(OC)c(OC)c4)cc3)cc12 please.
(A) 91.1% (inactive)

(Q) Same question for CCOC(=O)c1cc(C(=O)c2ccc(Br)cc2)n2ccc(/C=C/c3cc[n+](CC(=O)c4ccc(OC)cc4)cc3)cc12 please.
(A) -9.87% (active)

(Q) Same question for c1ccc(-c2c(-c3ccccc3)[n+](Cc3ccc4ccccc4c3)c(-c3cccc4ccccc34)n2Cc2ccc3ccccc3c2)cc1 please.
(A) -15% (active)

(Q) Same question for CNC(=O)c1cc(Cn2nc(C)c(NC(=O)Nc3ccc(Cl)c(C(F)(F)F)c3)c2C)ccn1 please.
(A) 93.8% (inactive)

* * *

- Tested on: SK-OV-3 ovarian
- Assay Info: NCI-60 one-dose screen, 48 h (100 = growth as untreated, 0 = no growth, -100 = all killed)
- Experimental Parameters: 10 µM unless noted
Compounds without any hit were thinned out: in the full panel of roughly 83,000, 20% have a hit.
Entries annotated with measured growth
Provide only the numeric value, understood in %.

Here is how some compounds turned out for growth.
1) COc1cc(/C=C\c2cc(OC)c(OC)c(OC)c2)cc(NC(=O)/C=C/c2cc(OC)c(OC)c(OC)c2)c1OC :: 50.8
2) COc1cc(C2C3=C(COC3=O)N(CCO)c3cc4c(cc32)OCO4)cc(OC)c1OC (centres undefined) :: -24.2
3) O=C1c2cccc3c(-c4ccc5c(c4)ncn5C4CCCCC4)ccc(c23)C(=O)N1c1nc2ccccc2s1 :: 95
4) CN(C)CC(O)c1ccc(/C=C/c2ccc(Cl)cc2)cc1 (centres undefined) :: 52.8
5) Cn1cc(-c2csc(-c3c[nH]c4ccccc34)n2)c2ccnc(Cl)c21 :: 93.9

(Q) What value of measured growth is listed for N#CC(C#N)=Cc1cc2ccccc2nc1Oc1ccc(C(F)(F)F)cc1 ?
(A) 88.6

(Q) Same question for Cc1cc2nc3c4ccc(Br)cc4n(CCN(C)C)c3nc2cc1C please.
(A) 33.8

(Q) Same question for COc1ccc(C(=O)CSc2nc(-c3cc(OC)ccc3OC)cc(-c3ccc(Cl)cc3)c2C#N)cc1 please.
(A) 33.3

(Q) Same question for C[C@H]1[C@H](C)CC[C@]2(C(=O)Nc3ccc4ncccc4c3)CC[C@]3(C)C(=CC[C@@H]4[C@@]5(C)CCCNC(C)(C)[C@@H]5CC[C@]43C)[C@H]12 please.
(A) 103

* * *

- Tested on: DU-145 prostate
- Assay Info: NCI-60 one-dose screen, 48 h
- Experimental Parameters: 10 µM unless noted
- Procedure: Cells are grown in 96 well plates and exposed to the test compound for 48 hours. Compounds are tested at a single concentration, which is 10^-5 M for most compounds. The reported endpoint is percent growth (GI% or GIPRCNT), where numbers from 0 - 100% represent growth inhibition, and numbers from -100% - 0 represent cell death. For example, a value of 40 represents 60% growth inhibition. A value of 0 means no net growth occurred over the course of the experiment. […]
The panel holds about 83,000 compounds, 20% with a hit somewhere; the sample as a whole holds those more often. Activity calls are given as the source filed them. Rule for the calls: active = growth percent below 10; inactive = the rest.
Log the outcome using a class from 1 for active, -1 for inactive

Here are 5 molecules together with their reported answers.
1) O=C(/C(=C/c1ccc([N+](=O)[O-])cc1)SCc1ccc(F)cc1)c1ccc(F)cc1 :: -1
2) CCc1c2c(nc3ccc(OCc4ccc(B(O)O)cc4)cc13)-c1cc3c(c(=O)n1C2)COC(=O)[C@]3(O)CC :: 1
3) COc1ccc(C(=O)CC#N)cc1 :: -1
4) C=C1C(=O)O[C@H]2[C@H]1CC/C(CNC(=O)CCc1ccc(OC)cc1)=C\CC[C@@]1(C)O[C@@H]21 :: -1
5) Oc1cccc(CCc2ccc(Oc3cc(CCc4cccc(O)c4)cc(O)c3O)cc2)c1 :: -1

(Q) For Nc1nc(Nc2ccccc2SSc2ccccc2Nc2nc(N)nc(-c3cccs3)n2)nc(-c2ccsc2)n1 , which call appears in the assay record?
(A) -1

(Q) Same question for CNCCOc1nc2c3cnccc3cc(-c3cc(OC)c(OC)c(OC)c3)c2c2ccncc12 please.
(A) 1

* * *

- System: MDA-MB-231 breast
- Assay Info: NCI-60 one-dose screen, 48 h
- Experimental Parameters: 10 µM unless noted
- Method: Cells are grown in 96 well plates and exposed to the test compound for 48 hours. Compounds are tested at a single concentration, which is 10^-5 M for most compounds. The reported endpoint is percent growth (GI% or GIPRCNT), where numbers from 0 - 100% represent growth inhibition, and numbers from -100% - 0 represent cell death. For example, a value of 40 represents 60% growth inhibition. A value of 0 means no net growth occurred over the course of the experiment. […]
About 83,000 compounds went through this panel and 20% of them were active in at least one assay; those are over-represented in the sample as a whole. Calls of active or inactive are those of the source. How the source made its calls: active means growth percent below 10; inactive means the rest.
Log the outcome using a class from TRUE for active, FALSE for inactive

Here are 2 compounds together with their reported answers.
1) Brc1ccc2[nH]cc(-c3cncn3CCc3ccccc3)c2c1 :: FALSE
2) O=C1Nc2cc(-c3ccc(NC(=O)C4CC4)cc3)ccc2/C1=C/c1ccc[nH]1 :: FALSE

(Q) For C=C(C)[C@@H]1CC[C@]2(C(=O)N[C@H](CO)Cc3ccccc3)CC[C@]3(C)[C@H](CC[C@@H]4[C@@]5(C)CCCNC(C)(C)[C@@H]5CC[C@]43C)[C@@H]12 , which call appears in the assay record?
(A) TRUE

(Q) Same question for CN1CCN(C(=O)[C@]23CCC(C)(C)C[C@H]2C2=CC[C@@H]4[C@@]5(C)C/C(=C/c6cccnc6)C(=O)C(C)(C)[C@@H]5CC[C@@]4(C)[C@]2(C)CC3)CC1 please.
(A) FALSE

(Q) Same question for COc1ccc(C(C)=O)c(OC)c1 please.
(A) FALSE

(Q) Same question for Cc1cc2c(c(C)c1Cl)C(=O)/C(=C/c1ccc(O)c(O)c1)O2 please.
(A) FALSE

(Q) Same question for CN1CCN(C(=O)[C@]23CCC(C)(C)C[C@H]2C2=CC[C@@H]4[C@@]5(C)C/C(=C/c6ccncc6)C(=O)C(C)(C)[C@@H]5CC[C@@]4(C)[C@]2(C)CC3)CC1 please.
(A) FALSE

(Q) Same question for COc1cc(-c2cc(-c3ccc(N(C)C)cc3)nc(N3CCOCC3)c2C#N)cc(OC)c1OC please.
(A) FALSE

(Q) Same question for CCN(CC)c1ccc(/C=N/NC(=O)CSc2nc3ccccc3c(=O)n2CCc2ccc(S(N)(=O)=O)cc2)c(O)c1 please.
(A) FALSE

(Q) Same question for Cc1cccc(NC(=O)Nc2ccc(-n3cnc4cc(-c5ccc(O)cc5)ccc43)cc2)c1 please.
(A) FALSE

(Q) Same question for CC1=C(C(=O)/C=C/c2ccc(N(C)C)cc2)C(c2ccccc2)NC(=S)N1 (stereo unspecified) please.
(A) FALSE

(Q) Same question for COC(=O)CNC(=O)[C@]12CCC(C)(C)C[C@H]1C1=CC[C@@H]3[C@@]4(C)Cc5c([nH]c6ccccc56)C(C)(C)[C@@H]4CC[C@@]3(C)[C@]1(C)CC2 please.
(A) FALSE

(Q) Same question for O=C(CNCCN1CCOCC1)N1c2cccc3cccc(c23)N(C(=O)CNCCN2CCOCC2)C1c1cn(-c2ccccc2)nc1-c1cccc([N+](=O)[O-])c1 please.
(A) FALSE

(Q) Same question for CCCCNC(=O)Oc1ccc(/C(=C(\C)c2ccccc2)c2ccc(OCCN3CCCCC3)cc2)cc1 please.
(A) FALSE

(Q) Same question for COc1cc2cc(Oc3cccc(NC(=O)Nc4cc(C(F)(F)F)cc(C(F)(F)F)c4)c3)c(C)nc2cc1OC please.
(A) TRUE

(Q) Same question for COc1ccc(C(=O)c2cc(C)c(OC)c(C)c2)c(OC)c1N(C(=O)CCl)C(=O)CCl please.
(A) TRUE
